Tested on: soybean
Assay: Test C preemergence
Format: in vivo, Glycine max
Settings: 500 g ai/ha, preemergence; 0 to 100 scale (0 no effect, 100 complete control)
Source text: […]
Lab note: cut-off is 40. Strictly less in Soybean plant response rating is T. Exactly 40 or more is F.

INSERT INTO assay_data (smiles_data, system_tested, class_assignment) VALUES
  ('CCOC[C@H]1CN(C(=O)c2cc(-n3cnc(C(C)C)n3)ccc2OC)c2cccc(Cl)c2O1', 'soybean', 'F'),
  ('COC[C@H]1CN(C(=O)c2cc(-n3cnc(C(C)(C)O)n3)ccc2OC)c2cccc(Cl)c2O1', 'soybean', 'F'),
  ('COc1ccc(-n2cncn2)cc1C(=O)N1C[C@H](C)Oc2c(F)cccc21', 'soybean', 'F'),
  ('COC(=O)N(C)c1ncn(-c2cccc(C(=O)N3C[C@H](C)Oc4c(C)cccc43)c2)n1', 'soybean', 'T'),
  ('Cc1cccc2c1O[C@@H](C)CN2C(=O)c1cccc(-n2cnc(C(C)(C)O)n2)c1', 'soybean', 'F'),
  ('COC[C@H]1CN(C(=O)c2cc(-n3cnc(C(C)(C)O)n3)ccc2C)c2cccc(Cl)c2O1', 'soybean', 'F'),
  ('CCc1cc(C(=O)N2C[C@H](C)Oc3c(Cl)cccc32)cc(-n2cncn2)c1', 'soybean', 'T');

----------
System: pigweed, palmer
Assay: Test C postemergence
Format: in vivo, Amaranthus palmeri
Settings: 125 g ai/ha, postemergence, 10 days; 0 to 100 scale, 0 no effect, 100 complete control
QUANTITY KIND: Plant response rating, Pigweed, Palmer

INSERT INTO assay_data (compound, test_result) VALUES
  ('COc1ccc(-n2cnc(C(C)(C)O)n2)cc1C(=O)N1C[C@H](C)Oc2c(C)cccc21 [Compound 280]', 70),
  ('CCn1cnc(-c2cccc(C(=O)N3C[C@H](C)Oc4c(Cl)cccc43)c2)n1 [Compound 173]', 0),
  ('CCc1c(C)cc(-n2cnc(C(C)C)n2)cc1C(=O)N1C[C@H](C)Oc2c(Cl)cccc21 [Compound 179]', 10),
  ('Cc1ccc(-n2cnc(C3(C(F)(F)F)CC3)n2)cc1C(=O)N1C[C@H](C)Oc2c(Cl)cccc21 [Compound 175]', 90),
  ('Cc1cccc2c1O[C@@H](C)CN2C(=O)c1cc(-n2cnc(C(C)C)n2)cc2ccoc12 [Compound 227]', 100),
  ('C[C@H]1CN(C(=O)c2cc(-n3cnc(C4CC4)n3)cc3c2OCCO3)c2cccc(Cl)c2O1 [Compound 156]', 80),
  ('COC[C@H]1CN(C(=O)c2cc(-n3cncn3)ccc2C)c2cccc(Cl)c2O1 [Compound 263]', 40),
  ('Cc1cccc2c1O[C@@H](C)CN2C(=O)c1cccc(-n2cnc(C(C)(C)O)n2)c1 [Compound 278]', 50);

----------
Documented Plant response rating, Ragweed across a set of molecules
Test system: ragweed
Assay: Test A preemergence
Type: in vivo, Ambrosia artemisiifolia
Conditions: 500 g ai/ha, 0 to 100 scale (0 no effect, 100 complete control), 10 days
QUANTITY KIND: Plant response rating, Ragweed

INSERT INTO measurements (molecule, test_result) VALUES
  ('CCc1ncn(-c2ccc(C)c(C(=O)N3C[C@H](C)Oc4c(Cl)cccc43)c2)n1 [Compound 75]', 100),
  ('CCc1ccc(-n2cnc(C3CCC3)n2)cc1C(=O)N1C[C@H](C)Oc2c(Cl)cccc21 [Compound 104]', 40),
  ('C[C@H]1CN(C(=O)c2cc(Cl)cc(-n3cncn3)c2)c2cccc(Cl)c2O1 [Compound 81]', 0),
  ('C[C@H]1CN(C(=O)c2cccc(-n3cncn3)c2)c2cccc(C(F)(F)F)c2O1 [Compound 47]', 0),
  ('Cc1ncn(-c2cccc(C(=O)N3C[C@H](C)Oc4c(C)cccc43)c2)n1 [Compound 51]', 0),
  ('Cc1cccc2c1O[C@@H](C)CN2C(=O)c1cccc(-n2cnc(C(C)C)n2)c1 [Compound 55]', 40),
  ('CCc1ncn(-c2cccc(C(=O)N3C[C@H](C)Oc4c(C)cccc43)c2)n1 [Compound 71]', 90),
  ('CCc1ncn(-c2ccc(C)c(C(=O)N3C[C@H](C)Oc4c(C)cccc43)c2)n1 [Compound 98]', 90);
